# Test System: ASK1 (Homo sapiens (Human), UniProt Q99683)
# Sequence (Q99683 whole entry): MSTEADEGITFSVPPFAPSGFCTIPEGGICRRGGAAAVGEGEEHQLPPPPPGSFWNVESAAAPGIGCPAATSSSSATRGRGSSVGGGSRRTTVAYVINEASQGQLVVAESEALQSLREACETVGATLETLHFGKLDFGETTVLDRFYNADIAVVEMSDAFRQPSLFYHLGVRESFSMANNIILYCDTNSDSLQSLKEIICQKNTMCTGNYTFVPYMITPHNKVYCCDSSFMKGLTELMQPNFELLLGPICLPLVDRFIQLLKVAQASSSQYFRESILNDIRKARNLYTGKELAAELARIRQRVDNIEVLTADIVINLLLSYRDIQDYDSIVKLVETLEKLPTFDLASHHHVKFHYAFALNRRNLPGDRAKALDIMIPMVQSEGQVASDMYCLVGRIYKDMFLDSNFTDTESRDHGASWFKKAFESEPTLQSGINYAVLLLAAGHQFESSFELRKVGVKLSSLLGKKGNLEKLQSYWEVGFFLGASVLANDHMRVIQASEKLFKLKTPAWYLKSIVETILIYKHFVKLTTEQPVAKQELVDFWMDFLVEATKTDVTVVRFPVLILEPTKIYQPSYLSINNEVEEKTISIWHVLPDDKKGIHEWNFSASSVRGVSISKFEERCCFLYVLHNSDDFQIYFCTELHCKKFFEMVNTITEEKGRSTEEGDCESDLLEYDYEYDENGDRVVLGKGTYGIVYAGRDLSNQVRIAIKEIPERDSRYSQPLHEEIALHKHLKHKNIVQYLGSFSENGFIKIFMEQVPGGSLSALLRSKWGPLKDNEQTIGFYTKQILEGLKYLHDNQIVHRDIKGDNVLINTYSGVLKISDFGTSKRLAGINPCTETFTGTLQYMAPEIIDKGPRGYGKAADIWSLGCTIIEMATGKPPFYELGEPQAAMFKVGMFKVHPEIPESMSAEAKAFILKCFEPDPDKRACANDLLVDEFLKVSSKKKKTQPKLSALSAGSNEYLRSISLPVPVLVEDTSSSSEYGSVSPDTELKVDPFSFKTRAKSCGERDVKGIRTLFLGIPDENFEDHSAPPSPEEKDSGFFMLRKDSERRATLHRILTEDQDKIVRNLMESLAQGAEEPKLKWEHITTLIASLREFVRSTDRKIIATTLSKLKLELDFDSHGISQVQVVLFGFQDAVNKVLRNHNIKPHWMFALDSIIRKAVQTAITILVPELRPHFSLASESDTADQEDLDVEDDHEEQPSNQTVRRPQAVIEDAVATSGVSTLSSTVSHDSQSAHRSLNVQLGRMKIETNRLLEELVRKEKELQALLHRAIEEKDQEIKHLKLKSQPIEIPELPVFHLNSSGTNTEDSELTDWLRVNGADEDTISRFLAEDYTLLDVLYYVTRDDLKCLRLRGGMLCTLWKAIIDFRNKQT
pIC50: −log10 of the molar value.
Catalogue of molecules with associated pIC50
Quantity: pIC50

* CC(C)n1cnnc1-c1cccc(NC(=O)c2ccc3ccc(NC4CCCCC4)nc3c2)n1 | < 6.00
* CC(C)Nc1nc2cc(C(=O)Nc3cccc(-c4nnnn4C(C)C)n3)c(F)cc2nc1OC(C)C | < 6.00
* CC(C)Oc1nc2ccc(C(=O)Nc3cccc(-c4nncn4C(C)C)n3)cc2nc1N1CCCCC1 | < 6.00
* CC(C)Oc1nc2cc(F)c(C(=O)Nc3cccc(-c4nnnn4C(C)C)n3)cc2nc1N(C)C(C)C | < 6.00
* CC(C)n1cnnc1-c1cccc(NC(=O)c2cc3ccccc3cn2)n1 | 8.00 to 9.00
* CC(C)n1cnnc1-c1cccc(NC(=O)c2ccc3cc(Br)cnc3c2)n1 | 6.00 to 7.00
* CC(C)CN(C)c1nc2cc(C(=O)Nc3cccc(-c4nncn4C(C)C)n3)c(F)cc2nc1OC(C)C | 6.00 to 7.00
* CC(C)n1cnnc1-c1cccc(NC(=O)c2ccc3ccc(N4CC5CCC(C4)O5)nc3c2)n1 | 6.00 to 7.00
* CC(C)n1cnnc1-c1cccc(NC(=O)c2ccc3cc(-c4ccc(C(C)(C)C)cc4)cnc3c2)n1 | < 6.00
* CCN(Cc1ccccc1)c1ccc2ccc(C(=O)Nc3cccc(-c4nncn4C(C)C)n3)cc2n1 | < 6.00
* CC(C)n1cnnc1-c1cccc(NC(=O)c2ccc3nccnc3c2)n1 | 6.00 to 7.00
* CC(C)n1cnnc1-c1cccc(NC(=O)c2ccc3cccnc3c2)n1 | < 6.00
* CC(C)n1cnnc1-c1cccc(NC(=O)c2ccc3ccc(N(C)C)nc3c2)n1 | < 6.00
* COc1nc2ccc(C(=O)Nc3cccc(-c4nncn4C(C)C)n3)cc2nc1N1CCOCC1 | 6.00 to 7.00

---

# Test System: ASK1 (Homo sapiens (Human))
# Assay Details: HTRF KinEASE Assay (TR-FRET), inhibition of ASK1
# Type: biochemical
# Test Parameters: 5 nM ASK1 kinase, 1 uM STK3 peptide substrate, 100 uM ATP, 3 hours
Catalogue of compounds with associated IC50
Quantity: IC50

* CC(C)Nc1nc2cc(C(=O)Nc3cccc(-c4nncn4C(C)C)n3)ccc2nc1OC(C)C | 10 to 100 nM
* COc1nc2cc(F)c(C(=O)Nc3cccc(-c4nncn4C(C)C)n3)cc2nc1N1CCCCC1 | 10 to 100 nM
* CC(C)Nc1nc2cc(C(=O)Nc3cccc(-c4nncn4C(C)C)n3)c(F)cc2nc1OC(C)C | 10 to 100 nM
* COc1nc2ccc(C(=O)Nc3cccc(-c4nncn4C(C)C)n3)cc2nc1N1CCCCC1 | 100 to 1000 nM
